Test: GFP drop in mixed WT/humanized-ribosome E. coli culture – GFP/RFP fluorescence, OD600, single point, bacterial rRNA inhibitor project, primary screen (AID 720706)
Conditions: E. coli WT GFP vs humanized-ribosome RFP mutants, 24 h; measured here: RFP humanized mutant strains, DMSO median 0, no signal -100, concentration not given here
Out of some 350,000 compounds screened, about 5,500 (1.6%) were called active. The full list was thinned out, with actives kept by preference.
// reported RFP signal change per item
PROPERTY_NAME: RFP signal change (%)

INSERT INTO results (compound, reported_measurement) VALUES
  ('O=C(NCc1nnnn1-c1ccc(Cl)cc1)c1ccc([N+](=O)[O-])o1', -4.79),
  ('O=C(NCc1nnnn1-c1ccc(Cl)cc1)c1ccc2c(c1)OCO2', -2.26),
  ('O=C1Oc2ccccc2C(=O)/C1=C/c1ccccc1O', -3.67),
  ('CO[C@H]1CN(C)C(=O)c2ccc(NC(=O)C3CC3)cc2OC[C@H](C)N(C(=O)CN2CCOCC2)C[C@@H]1C', -3.59),
  ('COc1ccc(NC(=O)Nc2ccc3c(c2)C(=O)N([C@H](C)CO)C[C@H](C)[C@@H](CN(C)Cc2ccc(C(=O)O)cc2)OCCCC[C@H](C)O3)cc1', -1.16),
  ('CO[C@H]1CN(C)C(=O)c2ccc(NC(C)=O)cc2OC[C@@H](C)N(C(=O)CN(C)C)C[C@@H]1C', -4.25),
  ('CN(C)CCCNC(=O)C[C@H]1CC[C@H]2[C@@H](COC[C@H](O)CN2C(=O)c2ccncc2)O1', -2.93),
  ('CC[C@]1(C(=O)OC)[C@H]2C(=O)N(Cc3ccccc3)C(=O)[C@H]2[C@H]2CN=C(SCc3ccccc3)N21', -8.47),
  ('Cc1ccc(C)c(NC(=O)NNC(=O)c2ccc3ccccc3c2O)c1', -0.547),
  ('O=S(=O)(N[C@@H]1CC[C@H](CCn2cc(C3(O)CCCC3)nn2)O[C@@H]1CO)c1ccc(Cl)cc1', -2.53),
  ('C[C@@H]1CN([C@@H](C)CO)S(=O)(=O)c2ccc(-c3ccncc3)cc2O[C@@H]1CN(C)C(=O)C1CCC1', -1.44),
  ('O=C(Nc1ccc(Br)cn1)c1ccc([N+](=O)[O-])o1', -3.37),
  ('COC(=O)c1ccc(/C=C2/C(=O)Oc3ccccc32)cc1', -1.53),
  ('O=C(NCCc1ccccc1)c1cccc(NC(=O)c2ccccc2)c1', 0.86),
  ('Cc1ccc(C(=O)N/C(=C\c2ccc(F)cc2)C(=O)NCCN2CCOCC2)cc1', -0.48),
  ('CCn1c(SCC(=O)Nc2cc(C)c(Cl)cc2OC)nnc1-c1ccco1', -9.88),
  ('O=C(NCC[C@@H]1CC[C@@H](NC(=O)C2CCCC2)[C@H](CO)O1)c1cnccn1', -1.44),
  ('CC(C)(C)OC(=O)N1CCC(C(=O)Nc2cccc(C(=O)NCCc3ccccc3)c2)CC1', 0.0785),
  ('Cc1onc(-c2ccccc2Cl)c1C(=O)OCc1nnc(-c2ccccc2)o1', -4.01),
  ('CC[C@]1(C(=O)OC)[C@H]2C(=O)N(Cc3ccccc3)C(=O)[C@H]2[C@H]2CN=C(SCc3ccc(C#N)cc3)N21', 8.89),
  ('O=C(C[C@H]1C=C[C@H](NC(=O)C2CCOCC2)[C@@H](CO)O1)NCC1CC1', 0.125),
  ('C[C@@H]1CN([C@H](C)CO)C(=O)c2ccccc2-c2ccccc2CO[C@H]1CN(C)S(=O)(=O)c1ccsc1', -2.79),
  ('CN1CCCCN2[C@H](CO)[C@H](c3ccc(-c4ccc(F)cc4)cc3)[C@@H]2C1', -2.51),
  ('COc1cccc(CCNC(=O)c2cccc(NC(=O)C3=C(C)OCCS3)c2)c1', -2.22),
  ('COC(=O)[C@@]1(C)[C@H]2C(=O)N(Cc3ccccc3)C(=O)[C@H]2[C@H]2CN=C(SCC3CC3)N21', -15.4),
  ('O=C(NCc1ccccc1)c1cccc(NC(=O)C2CCCCC2)c1', -7.71),
  ('O=C(Cc1ccc(Br)cc1)NCCc1ccccc1', -2.35),
  ('CC(C)NC(=O)/C(C#N)=C\c1ccc(N(C)C)c(Br)c1', 3.85),
  ('O=C(c1ccc(F)cc1)N1CC(=O)N2[C@@H](CO)[C@H](c3ccc(C4=CCCC4)cc3)[C@@H]2C1', -0.136),
  ('CSc1nc(-c2ccco2)nn1C(=O)c1ccccc1Cl', 0.841),
  ('Cn1c(SCC(=O)c2cccs2)nnc1-c1ccco1', 0.555),
  ('Cc1ccc(C)c(NC(=O)c2cc(-c3cc(C)cc(C)c3O)n[nH]2)c1', -4.96),
  ('C[C@H](O)C#Cc1ccc2c(c1)O[C@H](CN(C)Cc1cccnc1)[C@@H](C)CN([C@H](C)CO)S2(=O)=O', -2.32),
  ('CCNC(=O)c1cccc(NC(=O)C2CC(=O)N(CCc3ccccc3)C2)c1 (stereo not drawn)', 1.88),
  ('CC(C)(C)C(c1nc2ccccc2[nH]1)n1c(Cc2csc3ccccc23)nc2ccccc21 (stereo not drawn)', 9.77),
  ('Cc1c(C(=O)NCC2CCCO2)sc2nc(-c3ccccc3)cn12 (stereo not drawn)', -7.98),
  ('CO[C@@H]1CN(C)C(=O)c2cc(NC(=O)Nc3ccc4c(c3)OCO4)ccc2OC[C@@H](C)NC[C@@H]1C', -0.511),
  ('COc1cc(CN2CC3(CN(S(=O)(=O)c4cccs4)C3)c3c(n(C)c4cc(OC)ccc34)[C@H]2CO)cc(OC)c1', -2.78);
